Biological target: Proteasome subunit beta (Trypanosoma cruzi) (UniProt O96673)
Sequence (O96673 as listed by the source): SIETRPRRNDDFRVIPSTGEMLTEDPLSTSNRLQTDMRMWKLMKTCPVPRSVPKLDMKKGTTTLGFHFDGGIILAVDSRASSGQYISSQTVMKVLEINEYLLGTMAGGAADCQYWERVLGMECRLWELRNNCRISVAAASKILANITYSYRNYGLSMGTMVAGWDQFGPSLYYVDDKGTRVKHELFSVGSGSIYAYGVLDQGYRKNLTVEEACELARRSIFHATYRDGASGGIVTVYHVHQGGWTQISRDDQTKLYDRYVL
Experiment: Trypanosoma cruzi proteasome chymotrypsin-like activity (TcProtChymo) assay. Further: in the data most compounds retested in dose-response had high values.
Assay type: functional
Parameters: scale not given: direction of the effect not stated beside the values
Conditions: 9.37 µM
outcome_measure: Percent Effect

* O=c1cc(Cn2ccnc2)nc2n1CCCN(Cc1ccsc1)C2 | 13.3%
* O=C(N1CCOCC1)N1CCc2ncnc(NC3CC3)c2CC1 | 19.2%
* CN(C)C(=O)N1CCOCC2(CCN(c3ccccn3)C2)C1 (configuration not stated) | 9.19%
* O=C(C1CCCc2[nH]ncc21)N1CCCCCC1 (configuration not stated) | 11.2%

Entry under review: O=C(NCc1csc(Br)c1)c1ccncc1 . Reported Percent Effect?
11.3%

Which Percent Effect is reported for this molecule? Cn1ccnc1-c1ccccc1C(=O)N1CCc2c(nc(N)[nH]c2=O)C1
16.8%

What Percent Effect value was documented for this molecule, CC(C)N(C)Cc1nnc2n1CCCN(C(=O)c1ccco1)C2 ?
14.3%

Please report the recorded Percent Effect for O=c1c2ccccc2nc2n1CCN(Cc1cccs1)CC2 .
17%

# lookup: Percent Effect of Cc1nc(-c2ccccc2)sc1C(=O)NCCNc1ncccn1
3.98%

// returns reported Percent Effect for input CNC(=O)[C@@]12CCCN(c3ncccn3)[C@@H]1CN(C(=O)NC(C)C)C2
16.5%

Can you share its Percent Effect? I mean this molecule: c1cc2nc(C3CCN(CC4CC4)CC3)nn2cc1N1CCCC1
11.4%

Find the recorded Percent Effect belonging to Cc1oc(-c2nc(C#N)c(N(C)C)o2)cc1S(=O)(=O)N1CCCC1 and report it.
17.2%

###

Molecular target: Ubiquitin-activating enzyme e1, putative (Leishmania donovani (strain BPK282A1)) (UniProt E9BSI1)
Sequence (E9BSI1 as listed by the source): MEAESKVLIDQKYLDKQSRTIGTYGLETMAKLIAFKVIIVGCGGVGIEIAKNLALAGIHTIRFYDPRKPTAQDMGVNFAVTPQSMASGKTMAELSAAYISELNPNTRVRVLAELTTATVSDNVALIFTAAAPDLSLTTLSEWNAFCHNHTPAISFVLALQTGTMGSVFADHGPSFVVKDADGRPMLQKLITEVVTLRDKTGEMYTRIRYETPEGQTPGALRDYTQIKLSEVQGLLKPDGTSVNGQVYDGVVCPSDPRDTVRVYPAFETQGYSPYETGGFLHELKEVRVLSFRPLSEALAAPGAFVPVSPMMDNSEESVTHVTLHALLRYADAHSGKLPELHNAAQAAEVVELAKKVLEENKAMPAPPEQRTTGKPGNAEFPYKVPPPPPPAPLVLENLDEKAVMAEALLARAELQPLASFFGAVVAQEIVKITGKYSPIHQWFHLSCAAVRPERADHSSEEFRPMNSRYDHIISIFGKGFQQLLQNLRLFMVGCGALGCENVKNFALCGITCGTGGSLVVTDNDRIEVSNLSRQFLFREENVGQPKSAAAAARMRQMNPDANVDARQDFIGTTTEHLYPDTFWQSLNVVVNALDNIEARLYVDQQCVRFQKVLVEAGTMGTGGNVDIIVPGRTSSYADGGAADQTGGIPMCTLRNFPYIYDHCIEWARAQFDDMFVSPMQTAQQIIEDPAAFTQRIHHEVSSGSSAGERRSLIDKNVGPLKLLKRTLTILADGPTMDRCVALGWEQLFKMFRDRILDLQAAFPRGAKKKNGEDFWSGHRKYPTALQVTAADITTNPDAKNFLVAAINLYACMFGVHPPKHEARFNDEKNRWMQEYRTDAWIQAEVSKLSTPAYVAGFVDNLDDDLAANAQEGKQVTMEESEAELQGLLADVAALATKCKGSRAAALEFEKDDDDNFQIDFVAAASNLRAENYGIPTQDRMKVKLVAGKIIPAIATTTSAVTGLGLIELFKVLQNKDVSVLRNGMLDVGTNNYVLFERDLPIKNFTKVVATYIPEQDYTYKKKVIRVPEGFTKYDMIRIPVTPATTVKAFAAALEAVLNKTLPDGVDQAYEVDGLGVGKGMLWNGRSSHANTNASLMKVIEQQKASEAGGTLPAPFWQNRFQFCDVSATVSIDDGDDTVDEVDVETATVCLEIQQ
Experiment: Leishmania donovani Ubiquitin Activating Enzyme (LdE1)
Format: functional
Set-up: scale not given: direction of the effect not stated beside the values
Conditions: 30 µM
Results with a measured potency or affinity are listed apart.
// reported Percent Effect for each item listed
Kindly answer with a numeric value in %, unit omitted.

Known results for compounds:
* CCc1c(C)nc2n(c1=O)CC(C(=O)Nc1nc3c(s1)CCCC3)CS2 (centres undefined) | 13
* O=C(NCC(O)c1ccccc1Cl)c1cccc(-n2cnnn2)c1 (centres undefined) | 11
* CC(C)Nc1ncnc2c1CCN(C(=O)c1ccncc1F)CC2 | 8.11
* Cc1noc(C)c1C(=O)NCC(O)c1ccc(F)cc1F (centres undefined) | 0
* CC(C)C1CN(C(=O)c2ccc(N3CCCC3)nc2)CCS1 (centres undefined) | 2.6
* CN(C(=O)c1cccc(C(=O)NCC(F)(F)F)c1)c1ccccc1 | -2.6

Given Cc1ccsc1C(=O)N1CC(C(=O)NCC2CC2)C2(CCOCC2)C1 (centres undefined) , state its recorded Percent Effect.
7.79

Quick one: Percent Effect for O=C(NC1CCS(=O)(=O)C1)N1CCN(c2cnccn2)CC1 (centres undefined) ?
24.3

Item CN1CCOC(CN(C(=O)CC2CCCC2)c2nccs2)C1 (centres undefined) has what recorded Percent Effect?
0

###

Species on record: Homo sapiens
Assay: To identify inhibition of the IFN signalling (Jak-Stat) pathway via expression of an eGFP reporter gene under the control of an IFN-stimulated response element (ISRE) containing MxA promoter.
Format: functional
Parameters: scale not given: direction of the effect not stated beside the values
Settings: 30 µM
Please use 1.0 for Percent Effect under 10% and 0.0 for everything else, ties included.

Percent Effect strictly < 10% for this compound? CCC1(CC)Cc2ccccc2-c2nc(CN(C)C)nc(O)c21
0.0

Threshold test, Percent Effect < 10%: CCOc1ccc(C2CC(=O)Nc3c2c(=O)nc2sccn32)cc1 (configuration not stated)
1.0

API: query returns whether the compound falls strictly under 10% in Percent Effect. Query: c1ccc(OC[C@]23COC[C@H]2CN(c2ncccn2)C3)nc1
1.0

###

Organism: Homo sapiens
Assay: To identify inhibition of the IFN signalling (Jak-Stat) pathway via expression of an eGFP reporter gene under the control of an IFN-stimulated response element (ISRE) containing MxA promoter.
Assay type: functional
Design: scale not given: direction of the effect not stated beside the values
Conditions: 30 µM
# Lookup of reported Percent Effect keyed by entry
Write the answer as a number in %, unit excluded.

Here are 6 compounds together with their reported answers.
* CC(NC(=O)NCc1cccnc1N1CCCCC1)c1nccs1 (configuration not stated) | 2.75
* CN1CCN(Cc2nnc(C3CCN(CC4CC4)CC3)n2C)CC1 | 22.3
* O=C1COC2(CCN(Cc3cccs3)CC2)CN1c1ccccc1 | -0.737
* Cc1cc(C)n(CC2CCCN2C(=O)c2ccc3c(c2)OCO3)n1 (configuration not stated) | 1.15
* Cn1cc(C2CCCN2C(=O)CCCOc2ccc(F)cc2F)cn1 (configuration not stated) | -0.895
* O=C(CCNC(=O)c1ccccc1)Nc1ccncc1 | 3.87

Can you share its Percent Effect? I mean this compound: O=C1OCCN1CCOc1nc(-c2ccccc2Cl)no1
7.15

Please report the recorded Percent Effect for c1cc(CNCC2CNc3ccnn3C2)cc(N2CCCCC2)n1 (configuration not stated) .
1.88

Field request: Percent Effect | item: COCc1ccccc1C(=O)N1CCCC(n2nc(C)cc2C)C1 (configuration not stated)
-9.14

###

Entries annotated with measured Percent Effect
Target: AMP-activated protein kinase, AMPK (Homo sapiens) (UniProt P54646+O43741+P54619+Q9UGJ0+Q9Y478+Q13131+Q9UGI9)
Experiment: AMP-dependent Kinase enzyme assay. An in vitro enzyme assay that detects ADP turnover that is directly proportional to AMPK activity. This uses naive AMPK that is activated during the assay with MK-8722
Type: functional
Design: scale not given: direction of the effect not stated beside the values
Conditions: 30 µM
Reply numerically in %, unit not repeated.

- CN(Cc1ccccc1)CC1(O)CCCN(CC(C)(C)C)C1=O (stereo unspecified): -11.8
- Cc1nn(C)c(C)c1C(=O)N1CCOCC1CC(=O)c1ccco1 (stereo unspecified): 5.49
- Cc1ccc(N2CCCC(NCC(=O)NCC3CC3)C2)nn1 (stereo unspecified): -6.37
- c1cnc2c(c1)cc([C@H]1CCCO1)n2CCN1CCCCC1: 12

For the compound Cn1cc(CN2CC[C@@H]3O[C@H](C(=O)N4CCOCC4)C[C@@H]32)cn1 , what Percent Effect is on record?
0.801

Given the entry Cc1nn(-c2ccccc2)nc1C(=O)N1CCCC1c1cnn(C)c1 (stereo unspecified) , report its measured Percent Effect.
-0.474

Dear colleague, I am looking for the recorded Percent Effect of the following compound: Cc1ccc2ncnc(N3CCOCC3c3c(C)nn(C)c3C)c2c1 (stereo unspecified)
-4.79

Look up Percent Effect: COc1ccc(OC)c(C(O)CN2CC(n3cccn3)C2)c1 (stereo unspecified)
2.67

###

Molecular target: Tyrosyl-tRNA synthetase, putative (Trypanosoma cruzi (strain CL Brener))
Assay: Trypanosoma cruzi tyrosyl tRNA synthetase (TcYRS) _High Tyrosine SOP; further: in the data most compounds retested in dose-response had high values
Format: functional
Set-up: scale not given: direction of the effect not stated beside the values
Conditions: 30 µM
Below, each entry is listed with its recorded Percent Effect.
Form entry: value (%) — number only.

- COC(=O)C(NC(=O)C(C)C)c1cc(F)ccc1F (centres undefined): 2.91

Give its Percent Effect value. Item: Cc1nn(C)c2c(N3CCN(C(=O)c4ccccc4)CC3)ncnc12
8.47

# lookup: Percent Effect of CCN1CCC(CNCc2cc(OC)ccc2OC)C1 (centres undefined)
0.99

I'd like to know its Percent Effect. The compound in question is Cc1nc(CN2CC3(CCN(c4ncc(F)cn4)C3)CC2=O)cs1 (centres undefined)
3.17

###

Overview of recorded Percent Effect for various molecules
Biological target: Arginase-2, mitochondrial (Homo sapiens) (UniProt P78540)
Sequence (P78540 whole entry): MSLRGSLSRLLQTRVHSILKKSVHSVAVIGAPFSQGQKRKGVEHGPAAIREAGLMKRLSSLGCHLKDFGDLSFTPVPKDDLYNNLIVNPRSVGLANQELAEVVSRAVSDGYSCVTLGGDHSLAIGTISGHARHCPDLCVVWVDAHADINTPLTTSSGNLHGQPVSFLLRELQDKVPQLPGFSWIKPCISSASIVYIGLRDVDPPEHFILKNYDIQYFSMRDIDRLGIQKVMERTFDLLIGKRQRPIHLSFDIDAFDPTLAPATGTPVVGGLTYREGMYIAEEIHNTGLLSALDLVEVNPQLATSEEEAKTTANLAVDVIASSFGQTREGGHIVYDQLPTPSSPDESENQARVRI
Experiment: in vitro enzyme assay to detect the production of urea directly proportional to the activity of Arginase II; further: in the data most compounds retested in dose-response had high values
Type: functional
Design: scale not given: direction of the effect not stated beside the values
Conditions: 33.3 µM
// units = %; emit number, no label

- c1csc(CN2Cc3nccn3CC(Cn3cncn3)C2)n1 (stereo unspecified): 3.19
- Cn1ncc2c1CCCC2NCc1cnc(-c2ccccc2)nc1 (stereo unspecified): -7.21
- O=C1CCc2cc(C(=O)NCc3ccc(-n4cncn4)nc3)ccc2N1: 0.802
- Cc1cc(C)c(CNC(=O)NCC(c2ccccc2)N(C)C)c(=O)[nH]1 (stereo unspecified): 1.08

From here, focus on the item given below.
If you can, please state the reported Percent Effect value of CCC(C)NC(=O)Nc1ccc(CN2CCOC2=O)cc1 (stereo unspecified) .
0

###

Items are presented alongside their recorded Percent Effect.
Target: AMP-activated protein kinase, AMPK (Homo sapiens) (UniProt P54646+O43741+P54619+Q9UGJ0+Q9Y478+Q13131+Q9UGI9)
Assay: AMP-dependent Kinase enzyme assay. An in vitro enzyme assay that detects ADP turnover that is directly proportional to AMPK activity. This uses naive AMPK that is activated during the assay with MK-8722
Assay type: functional
Parameters: scale not given: direction of the effect not stated beside the values
Details: 30 µM
Expressed in %, but write only the number.

- O=C(Cc1csc(-c2ccco2)n1)N1CCN(c2cnccn2)CC1: -1.6
- COC(=O)c1sccc1S(=O)(=O)NCC1(O)CCOc2ccccc21 (stereo unspecified): 5.9
- COc1cc(C)nc(N2CCN(C(=O)CCc3nccs3)CC2)n1: 2.65
- O=C(c1cc(=O)[nH]c(=O)[nH]1)N1CCCCC1c1ccc(F)cc1 (stereo unspecified): 0.748

Recorded Percent Effect for Cc1ccc(OCCC(=O)NC2CCc3nccn3C2)cc1 (stereo unspecified) , please?
7.39

I'd like to know its Percent Effect. The compound in question is Cc1ncsc1CN1C[C@H](C(=O)N2CCCO2)[C@@H]2CCO[C@@H]2C1
-4.3

# input compound: CCc1ccc(NC(=O)N2C[C@H]3C[C@H](C(=O)NC)[C@@H](C2)O3)cc1 ; wanted: its Percent Effect
6.04

I am curious: what Percent Effect value has been reported for O=C(c1cc(Cl)c2c(c1)OCO2)N1CCN(c2ccccn2)CC1 ?
-6.15

So what's the measured Percent Effect for this one? Cc1ncoc1C(=O)N1C[C@H]2CCC[C@@]2(COCC2CCOCC2)C1
4.71

# lookup: Percent Effect of CC(C)c1nnc2n1CCN(C(=O)c1ccc(-n3cnnc3)cc1)C2
-7.99

Entry Cc1ccc(C(=O)N2CCC3(CCC(=O)N(CC(N)=O)C3)CC2)c(O)c1 has what Percent Effect?
-0.266
